target: Mouse ACVR2A (mouse, UniProt P27038 20-135, limits assumed); assay: ELISA; note: test concentration or dose not given here
Sequence (P27038 20-135 limits assumed): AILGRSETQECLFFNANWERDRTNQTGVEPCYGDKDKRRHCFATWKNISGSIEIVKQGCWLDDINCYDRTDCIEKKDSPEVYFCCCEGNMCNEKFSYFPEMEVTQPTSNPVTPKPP
reportedEndpoint: optical density
A complete answer gives the number and then names the unit.

369_G05 (antibody, V domains shown, VH/VL only) VH: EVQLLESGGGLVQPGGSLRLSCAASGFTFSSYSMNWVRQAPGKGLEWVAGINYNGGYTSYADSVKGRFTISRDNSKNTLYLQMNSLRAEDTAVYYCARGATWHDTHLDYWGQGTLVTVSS VL: DIQMTQSPSSLSASVGDRVTITCRASQSIVSYLNWYQQKPGKAPKLLIYAATSRHSGVPSRFSGSGSGTDFTLTISSLQPEDFATYYCQQSYDSPLTFGGGTKVEIK ... 3.28 OD

Shifting focus to the binder that follows.
Lab book: optical density of 368_F06 (antibody, V domains shown, VH/VL only) VH: EVQLLESGGGLVQPGGSLRLSCAASGFTFDDYSMHWVRQAPGKGLEWVANINYNSGYTGYADSVKGRFTISRDNSKNTLYLQMNSLRAEDTAVYYCARGATWHDTHLDYWGQGTLVTVSS VL: DIQMTQSPSSLSASVGDRVTITCRASQSILSYLNWYQQKPGKAPKLVIYATTSRASGVPSRFSGSGSGTDFTLTISSLQPEDFATYYCQQSYENPLTFGGGTKVEIK noted as 1.68 OD
